For each of the binders below, state its Kd.
Target: T1, human LRRC15 extracellular domain with C-terminal His tag (human, UniProt Q8TF66 22-538)
T1 construct: Recombinant, made in HEK293; the entry holds the extracellular domain and the His tag; SPR analyte; also called TPP-1545; hLRRC15 CT-His
T1 sequence: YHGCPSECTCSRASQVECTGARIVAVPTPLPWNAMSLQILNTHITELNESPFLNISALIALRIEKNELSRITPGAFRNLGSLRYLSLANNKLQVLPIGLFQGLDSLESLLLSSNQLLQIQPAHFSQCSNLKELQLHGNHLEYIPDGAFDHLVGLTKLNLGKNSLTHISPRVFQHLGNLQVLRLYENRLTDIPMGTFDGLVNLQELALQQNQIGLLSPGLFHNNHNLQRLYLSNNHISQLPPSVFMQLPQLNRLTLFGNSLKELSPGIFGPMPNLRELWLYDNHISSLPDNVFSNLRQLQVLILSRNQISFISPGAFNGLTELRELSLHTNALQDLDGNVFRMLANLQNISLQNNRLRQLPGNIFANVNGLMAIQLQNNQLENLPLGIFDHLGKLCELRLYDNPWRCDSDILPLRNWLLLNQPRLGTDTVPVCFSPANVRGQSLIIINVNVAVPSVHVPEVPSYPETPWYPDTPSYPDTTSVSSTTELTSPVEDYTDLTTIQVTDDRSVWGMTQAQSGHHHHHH
Experiment: SPR Biacore T200, antibody captured, LRRC15 analyte, 25°C
Express the result in nM but write the number alone.

query: What measured Kd goes with TPP-17078 (antibody, human IgG1, kappa, V domains shown, also called 438H-M308-H05-hIgGkappa) VH: EVQLVQSGAEVKKPGASVKVSCKASGYKFSSYWIEWVKQAPGQGLEWIGEILPGSDTTNYNEKFKDRATFTSDTSINTAYMELSRLRSDDTAVYYCARDRGNYRAWFGYWGQGTLVTVSS VL: DIQMTQSPSSLSASVGDRVTITCRASQSISSYLNWYQQKPGGAPKFLIYYASSLQSGVPSRFSGSGSGTDYTLTISSLQPEDFATYYCQQGFSLPWTFGGGTKVEIKR ?
result: 1.6

query: What measured Kd goes with TPP-14392 (antibody, human IgG1, kappa, V domains shown, also called 13612-rec05-hIgG1Kappa) VH: EVQLLESGGGLVQPGGSLRLSCAASGFTFSGYMMSWVRQAPGKGLEWVSGIYPSPGYTYYADSVKGRFTISRDNSKNTLYLQMNSLRAEDTAVYYCAREKASDLSGSYSEALDYWGQGTLVTVSS VL: DIQMTQSPDSLSASVGDRVTITCRASQDVGSWLAWYQQKPGKAPKLLIFAASYLESGIPSRFSGSGSGTDFTLTISSLQPEDFATYYCQQANGFPLTFGGGTKVEIKR ?
result: 6.8
